assayInfo: Peptide stability in human serum
Type: in vitro ADME
reportedConditions: Time 6.00 (time unit inferred); human serum; mean, SD; read-out: peptide in human serum over time, mean
No end group written: not given here.
attributeMeasured: remaining at 6 h, 300 μM (%)

KKPGASLAALQALQALQALQALQAAQAAKKY [(P3-7)3]    103
KKPGASAAAAQAAQAAQAAQAAQAAQAAKKY [(P3-7)3 Ctrl]    115

----------
assayInfo: Peptide stability in human serum
Format: in vitro ADME
reportedConditions: Time 4.00 (time unit inferred); human serum; mean, SD; read-out: peptide in human serum over time, mean
No end group written: not given here.
attributeMeasured: remaining at 4 h, 300 μM (%)
The response must be a number in % with no trailing unit.

Challenge: Name the recorded remaining at 4 h, 300 μM for KKPGASAAAAQAAQAAQAAQAAQAAQAAKKY [(P3-7)3 Ctrl] .
Response given: 94.5
